Assay: qHTS assay to test for compound auto fluorescence at 460 nm (blue) in HepG2 cell free culture (AID 720685); note: % is set by controls: 0 for no effect and ±100 for the full control effect
Conditions: Cell-free culture medium, blue autofluorescence 405/460 nm; series mostly up to 91.3 µM
Activity calls are given as the source filed them. Calls come from the whole dose curve; as a rule, active = well fitted curve in the direction sought with a large enough effect in the repeat runs; inconclusive = weak or mixed curves; inactive = flat fitted curve, though single readings scatter.

COMPOUND	fluorescence, % of fluorescent control
CCCCN1C=CN(C)C1	-0.0433% [at 18.6 µM] (inactive)
[K+]	inactive
CC(C)COC(=O)c1ccc(N)cc1	inactive
O=C(O)c1cn(C2CC2)c2cc(N3CCNCC3)c(F)cc2c1=O	0.0229% [at 18.6 µM] (inactive)
C[N+]1(C)[C@@H]2CC(OC(=O)[C@H](CO)c3ccccc3)C[C@H]1[C@@H]1O[C@@H]12 (some centres undefined)	inactive
CC(=O)c1ccccc1[N+](=O)[O-]	inactive
c1coc(CNc2ncnc3nc[nH]c23)c1	inactive
COc1ccccc1OCC1CNC(=O)O1 (centres undefined)	inactive
CC[N+](C)(CC)CCOC(=O)C1c2ccccc2Oc2ccccc21	inactive
Clc1cc(Cl)cc(Cl)c1	inactive
CN1CCC(=C2c3ccccc3CCc3cccnc32)CC1	inactive
Cc1cccc(C)c1NC(=O)CC12CCCN1CCC2	inactive
CN1CC(=O)N/C1=N/C(=O)Nc1cccc(Cl)c1	inactive
CC1=NN(c2cc(S(=O)(=O)O)ccc2Cl)C(=O)C1N=Nc1ccccc1 (centres undefined)	inactive
CCCCCCC1CCC(=O)O1 (centres undefined)	inactive
NC(CCC(=O)O)C(=O)O (centres undefined)	inactive
CC(C)(C)C(=O)Oc1ccc(S(=O)(=O)Nc2ccccc2C(=O)NCC(=O)O)cc1	inactive
CCC(C)(CN(C)C)OC(=O)c1ccccc1 (centres undefined)	0.131% [at 18.6 µM] (inactive)
CCCCCCCCCCOc1cc2c(=O)c(C(=O)OCC)c[nH]c2cc1OCC	inactive
